Target: OGA (Homo sapiens)
Construct: HEK293 cells inducible for P301L mutant human Tau (isoform 2N4R) were established at Janssen; endogenous in cells; host or cells: HEK293 cells inducible for P301L mutant human Tau (2N4R)
Assay: OGA cellular assay (ICC detection of O-GlcNAcylated proteins in HEK293 cells inducible for P301L mutant human Tau)
Type: cell-based
Details: HEK293 cells inducible for P301L mutant human Tau, 6 hours incubation; read-out: Cellular hOGA; pEC50 (converted)
READOUT LABEL: EC50 (nM)

Some solved cases for reference:
COMPOUND	TARGET OR SYSTEM	UNIT OF MEASURE	EC50
CC(c1nc2c(cc1F)OCCO2)N1CCC(Oc2ccc(C3CC3)nc2)CC1 (stereo not shown)	OGA (Homo sapiens)	nM	67.6
Cc1ccc(NC2CCN(C(C)c3nc4c(cc3F)OCCO4)CC2)cn1 (stereo not shown)	OGA (Homo sapiens)	nM	63.1

(P) Cc1ccc(OC2CCN(C(C)c3nc4c(cc3F)OCCO4)CC2)nc1 (stereo not shown)
(Q) Cc1cc(OC2CCN(C(C)c3nc4c(cc3F)OCCO4)CC2)ccn1 (stereo not shown)
Ask | Pick the one with the larger EC50: P vs Q // output: label of the selected item
Reply | P
(P: 316 nM, Q: 63.1 nM)

* * *

Target: recombinant human Meningioma Expressed Antigen 5 (MGEA5), also referred to as O-GlcNAcase (OGA) (Homo sapiens)
Construct: Full length OGA enzyme was purchased at OriGene (cat #TP322411); purchased OriGene TP322411
Sequence (O60502 1-916): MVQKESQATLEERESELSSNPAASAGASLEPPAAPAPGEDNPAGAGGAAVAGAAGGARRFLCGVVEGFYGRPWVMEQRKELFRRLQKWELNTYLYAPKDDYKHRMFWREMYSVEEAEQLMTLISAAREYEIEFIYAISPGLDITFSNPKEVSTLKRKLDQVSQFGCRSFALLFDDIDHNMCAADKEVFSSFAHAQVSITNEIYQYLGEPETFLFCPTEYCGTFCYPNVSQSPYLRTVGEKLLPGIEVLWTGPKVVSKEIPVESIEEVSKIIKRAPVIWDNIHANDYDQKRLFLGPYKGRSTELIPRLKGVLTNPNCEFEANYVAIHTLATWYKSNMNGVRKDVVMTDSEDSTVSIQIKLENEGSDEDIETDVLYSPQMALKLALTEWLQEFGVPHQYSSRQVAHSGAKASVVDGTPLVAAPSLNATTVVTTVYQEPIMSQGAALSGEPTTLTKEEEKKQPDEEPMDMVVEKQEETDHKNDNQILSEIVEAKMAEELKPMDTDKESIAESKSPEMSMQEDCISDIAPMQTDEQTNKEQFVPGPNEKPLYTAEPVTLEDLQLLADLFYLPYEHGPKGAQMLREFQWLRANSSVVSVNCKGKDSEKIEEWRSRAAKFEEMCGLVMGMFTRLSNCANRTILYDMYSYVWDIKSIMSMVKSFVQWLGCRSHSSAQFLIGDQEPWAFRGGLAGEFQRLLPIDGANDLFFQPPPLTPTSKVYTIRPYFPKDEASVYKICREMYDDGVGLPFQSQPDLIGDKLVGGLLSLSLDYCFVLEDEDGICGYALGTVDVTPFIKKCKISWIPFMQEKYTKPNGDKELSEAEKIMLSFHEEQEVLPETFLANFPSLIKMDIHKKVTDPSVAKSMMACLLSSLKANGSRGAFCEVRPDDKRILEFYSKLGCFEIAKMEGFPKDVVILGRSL
Test: OGA biochemical assay (inhibition of FM-GlcNAc hydrolysis, fluorescence)
Details: read-out: Enzymatic Emax (%)
READOUT LABEL: Emax (%)

Some solved cases for reference:
MOLECULE	Emax, %
Cc1cc(OC2CCN(C(C)c3ccc4c(n3)OCCO4)CC2)ccn1 (centres unmarked) [Compound 45]	96
Cc1ccc(OC2CCN(C(C)c3nc4c(cc3F)OCCO4)CC2)cn1 (centres unmarked) [Compound 94]	96
Cc1cc(OC2CCN(C(C)c3nc4c(cc3F)OCCO4)CC2)cnc1C (centres unmarked) [Compound 166]	98
Cc1cc(OC2CCN(C(C)c3ccc4c(n3)OCCO4)CC2)cc(C)n1 (centres unmarked) [Compound 1]	101
Cc1cc(OC2CCN([C@H](C)c3nc4c(cc3F)CCO4)CC2)cc(C)n1 (single isomer, unassigned) [Compound 144]	97

(P) Cc1cc(OC2CCN(C(C)c3cc4c(cn3)OCCO4)CC2)cc(C)n1 (centres unmarked) [Compound 29]
(Q) Cc1cc(OC2CCN(C(C)c3cnc4c(c3)OCCN4)CC2)cc(C)n1 (centres unmarked) [Compound 34]
(R) C[C@H](c1nc2c(cc1F)OCCO2)N1CCC(Oc2ccc(C#N)nn2)CC1 (single isomer, unassigned) [Compound 85]
Ask | hey, can you rank those molecules up there by Emax? biggest number first please Answer by listing the labels in the requested order.
Reply | Q, P, R

* * *

Target: OGA (Homo sapiens, UniProt O60502)
Construct: HEK293 cells inducible for P301L mutant human Tau (isoform 2N4R) were established at Janssen; endogenous in cells; host or cells: HEK293 cells inducible for P301L mutant human Tau (2N4R)
Sequence (O60502 1-916): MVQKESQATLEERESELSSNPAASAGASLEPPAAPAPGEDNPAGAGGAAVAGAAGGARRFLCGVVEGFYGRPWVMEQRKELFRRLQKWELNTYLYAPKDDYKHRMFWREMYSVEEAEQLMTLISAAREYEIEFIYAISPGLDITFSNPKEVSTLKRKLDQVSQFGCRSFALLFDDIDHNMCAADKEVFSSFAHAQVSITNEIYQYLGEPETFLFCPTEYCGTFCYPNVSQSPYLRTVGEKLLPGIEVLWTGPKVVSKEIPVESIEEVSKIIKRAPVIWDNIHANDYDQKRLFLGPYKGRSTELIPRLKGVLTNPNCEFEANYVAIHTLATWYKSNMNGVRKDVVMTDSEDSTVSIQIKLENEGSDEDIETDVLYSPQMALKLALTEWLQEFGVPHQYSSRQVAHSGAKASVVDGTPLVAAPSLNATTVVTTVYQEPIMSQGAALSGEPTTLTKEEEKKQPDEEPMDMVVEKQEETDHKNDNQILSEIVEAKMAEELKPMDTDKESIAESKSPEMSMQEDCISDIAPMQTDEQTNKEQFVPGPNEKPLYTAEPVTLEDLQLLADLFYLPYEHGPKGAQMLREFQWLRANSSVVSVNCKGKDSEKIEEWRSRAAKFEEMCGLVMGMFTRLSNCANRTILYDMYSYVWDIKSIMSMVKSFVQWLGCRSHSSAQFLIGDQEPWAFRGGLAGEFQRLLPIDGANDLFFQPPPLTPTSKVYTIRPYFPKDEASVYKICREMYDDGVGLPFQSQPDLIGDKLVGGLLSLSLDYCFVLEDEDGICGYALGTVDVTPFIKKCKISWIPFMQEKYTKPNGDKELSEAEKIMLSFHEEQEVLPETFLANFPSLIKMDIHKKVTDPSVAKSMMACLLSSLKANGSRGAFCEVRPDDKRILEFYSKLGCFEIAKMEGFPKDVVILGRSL
Assay: OGA cellular assay (ICC detection of O-GlcNAcylated proteins in HEK293 cells inducible for P301L mutant human Tau)
Assay type: cell-based
Conditions: HEK293, HEK293 cells inducible for P301L mutant human Tau, 6 hours incubation; maximum = Thiamet G 200 uM
READOUT LABEL: Emax (%)

COMPOUND	RECORDED RESULT
Cc1ccc(COC2CCN(C(C)c3nc4c(cc3F)OCCO4)CC2)cn1 (stereo not drawn) [Compound 138]	79

(P) Cc1cnc(OC2CCN(C(C)c3nc4c(cc3F)OCCO4)CC2)cc1C (stereo not drawn) [Compound 157]
(Q) Cc1cccnc1OC1CCN(C(C)c2ccc3c(n2)OCCO3)CC1 (stereo not drawn) [Compound 70]
Ask | For the pair P and Q , which member has the lower Emax number? // output: label of the selected item
Reply | Q

* * *

Target: recombinant human Meningioma Expressed Antigen 5 (MGEA5), also referred to as O-GlcNAcase (OGA) (Homo sapiens)
Construct: Full length OGA enzyme was purchased at OriGene (cat #TP322411); purchased OriGene TP322411
Sequence (O60502 1-916): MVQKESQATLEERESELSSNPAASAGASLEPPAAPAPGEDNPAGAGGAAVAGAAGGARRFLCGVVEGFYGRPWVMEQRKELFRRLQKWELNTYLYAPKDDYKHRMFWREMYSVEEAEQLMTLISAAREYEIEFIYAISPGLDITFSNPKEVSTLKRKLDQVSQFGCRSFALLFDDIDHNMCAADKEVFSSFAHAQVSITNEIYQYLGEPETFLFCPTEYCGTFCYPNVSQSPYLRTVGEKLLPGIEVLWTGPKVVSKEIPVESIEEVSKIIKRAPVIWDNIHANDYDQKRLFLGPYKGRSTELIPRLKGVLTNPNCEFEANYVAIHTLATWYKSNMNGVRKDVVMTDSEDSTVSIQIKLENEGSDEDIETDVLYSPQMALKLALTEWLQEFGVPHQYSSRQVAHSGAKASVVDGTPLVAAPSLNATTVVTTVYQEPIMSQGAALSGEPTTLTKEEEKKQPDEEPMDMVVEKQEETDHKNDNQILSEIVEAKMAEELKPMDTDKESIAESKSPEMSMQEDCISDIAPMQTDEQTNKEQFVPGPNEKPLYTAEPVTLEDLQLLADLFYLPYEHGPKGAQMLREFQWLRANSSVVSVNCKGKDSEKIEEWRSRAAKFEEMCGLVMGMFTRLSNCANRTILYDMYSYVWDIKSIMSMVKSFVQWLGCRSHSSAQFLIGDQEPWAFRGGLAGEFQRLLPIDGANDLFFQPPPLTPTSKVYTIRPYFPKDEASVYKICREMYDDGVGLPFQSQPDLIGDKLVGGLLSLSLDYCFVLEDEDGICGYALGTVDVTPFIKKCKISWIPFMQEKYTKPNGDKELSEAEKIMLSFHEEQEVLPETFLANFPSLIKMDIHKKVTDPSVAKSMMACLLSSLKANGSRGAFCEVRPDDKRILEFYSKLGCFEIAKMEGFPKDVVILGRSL
Assay: OGA biochemical assay (inhibition of FM-GlcNAc hydrolysis, fluorescence)
Details: read-out: Enzymatic hOGA, pIC50 (converted)
READOUT LABEL: IC50 (nM)

Some solved cases for reference:
MOLECULE	IC50 (nM)
Cc1cc(COC2CCN(C(C)c3nc4c(cc3F)OCCO4)CC2)cc(C(F)(F)F)n1 (centres unmarked)	12.6
COc1cc(OC2CCN([C@@H](C)c3nc4nc(C)sc4cc3F)CC2)cc(C)n1 (single isomer, unassigned)	1.58
COc1cc(OC2CCN(C(C)c3nc4c(cc3F)OCCO4)CC2)cc(C)n1 (centres unmarked)	5.01
COc1cc(OC2CCN(C(C)c3ccc4c(n3)OCCO4)CC2)ncc1C#N (centres unmarked)	79.4
Cc1ccnc(OC2CCN(C(C)c3nc4c(cc3F)OCCO4)CC2)c1 (centres unmarked)	20

(P) COc1cc(C#N)cnc1OC1CCN(C(C)c2ccc3c(n2)OCCO3)CC1 (centres unmarked)
(Q) Cc1cc(OC2CCN(C(C)c3ccc4c(n3)OCCO4)CC2)cc(C)n1 (single isomer, unassigned) [Compound 3]
Ask | Pick the one with the larger IC50: P vs Q // output: label of the selected item
Reply | P

(1) CC(c1ccc2c(n1)OCCO2)N1CCC(Oc2cnc(C(F)(F)F)cn2)CC1 (centres unmarked)
(2) CC(c1ccc2c(n1)OCCO2)N1CCC(Oc2cnc(Cl)c(F)c2)CC1 (centres unmarked)
Ask | Pick the one with the larger IC50: 1 vs 2 // output: label of the selected item
Reply | 1
(1: 316 nM, 2: 79.4 nM)

(a) COc1cc(OC2CCN(C(C)c3nc4nc(C)sc4cc3F)CC2)cc(C)n1 (centres unmarked)
(b) Cc1cc(OC2CCN(C(C)c3ccc4c(n3)OCCO4)CC2)cc(C)n1 (centres unmarked) [Compound 1]
Ask | Pick the one with the larger IC50: a vs b // output: label of the selected item
Reply | b
